The following molecules are shown together with reported Percent Effect values.
Measured target: Aspartate--tRNA(Asp/Asn) ligase (Mycobacterium tuberculosis (strain ATCC 25618 / H37Rv))
Test details: Assay for Asp RNA synthetase-1 from Mycobacterium tuberculosis
Type: functional
Design: scale not given: in the data most compounds retested in dose-response had high values
Stated conditions: 30 µM
# value in %; strip the unit string

QUERY: Requested read-out: Percent Effect. Entry: Cn1ncc2c1NC(=O)CC2c1ccc(O)cc1 (stereo unspecified)
RESULT: 0.0331

Continuing:
QUERY: Any idea what its Percent Effect is? The molecule is COCCN1C(=O)[C@]2(CC[C@@H]3CN(C(=O)NC4CCCC4)C[C@@H]32)N=C1C
RESULT: 0.379

QUERY: Try Cc1cc(C)n(CC2CCCCN2C(=O)c2cnn(C)c2)n1 (stereo unspecified) next.
RESULT: -5.01

QUERY: Now try COc1cccc(CCC(=O)N2CCCCC2Cn2cccn2)c1 (stereo unspecified) .
RESULT: 1.44

QUERY: What do you get for COc1ccc(CN2C[C@@H](OCc3csc(C)n3)[C@H]3COC[C@H]32)cc1 ?
RESULT: -1.16

QUERY: Proceed to CCc1nc(CC(=O)Nc2cnn(CC3CCCO3)c2)cs1 (stereo unspecified)
RESULT: 1.86
